Where do the numbers come from? From patent US5602146A.

MEASUREMENT KIND: IC50

Field IC50 (HIV "Reverse Transcriptase" (Human immunodeficiency virus type 1 group M subtype B)), entry CSCCON=C1c2cc(Cl)ccc2NC(=O)C1(C)C : 320 to 3200 nM

Field IC50 (HIV "Reverse Transcriptase" (Human immunodeficiency virus type 1 group M subtype B)), entry CC(C)ON=C1c2cc(Cl)ccc2NC(=O)C1(C)C : 3.56 to 35.6 nM

Field IC50 (HIV "Reverse Transcriptase" (Human immunodeficiency virus type 1 group M subtype B)), entry CCC1C(=O)Nc2ccc(Cl)cc2C1=NO (centres unmarked) : 4190 to 41900 nM

Field IC50 (HIV "Reverse Transcriptase" (Human immunodeficiency virus type 1 group M subtype B)), entry CCC1(CC)C(=O)Nc2ccc(Cl)cc2C1=NOC(C)C : 3.24 to 32.4 nM

Field IC50 (HIV "Reverse Transcriptase" (Human immunodeficiency virus type 1 group M subtype B)), entry CCC(C)ON=C1c2cc(Cl)ccc2NC(=S)C1(C)C (centres unmarked) : 32.2 to 322 nM

Field IC50 (HIV "Reverse Transcriptase" (Human immunodeficiency virus type 1 group M subtype B)), entry CC(C)=NN=C1c2cc(Cl)ccc2NC(=S)C1(C)C : 3.4 to 34 nM

Field IC50 (HIV "Reverse Transcriptase" (Human immunodeficiency virus type 1 group M subtype B)), entry CCON=C1c2cc(Cl)ccc2N=C(Nc2ccccc2)C1(C)C : 29.3 to 293 nM

Field IC50 (HIV "Reverse Transcriptase" (Human immunodeficiency virus type 1 group M subtype B)), entry CC(C)ON=C1c2cc(Cl)ccc2NC(=O)C12CCCC2 : 3.26 to 32.6 nM

Field IC50 (HIV "Reverse Transcriptase" (Human immunodeficiency virus type 1 group M subtype B)), entry CCON=C1c2cc(Cl)ccc2N=C(Nc2ccc(Cl)cc2)C1(C)C : ~266 nM

Field IC50 (HIV "Reverse Transcriptase" (Human immunodeficiency virus type 1 group M subtype B)), entry C=CCON=C1c2cc(Cl)ccc2NC(=O)C1(C)C : 35.9 to 359 nM

Field IC50 (HIV "Reverse Transcriptase" (Human immunodeficiency virus type 1 group M subtype B)), entry CCON=C1c2cc(Cl)ccc2NC(=O)C1CC (centres unmarked) : 37.5 to 375 nM

Field IC50 (HIV "Reverse Transcriptase" (Human immunodeficiency virus type 1 group M subtype B)), entry CCC1C(=O)Nc2ccc(Cl)cc2C1=NOC(C)C (centres unmarked) : 35.6 to 356 nM

Field IC50 (HIV "Reverse Transcriptase" (Human immunodeficiency virus type 1 group M subtype B)), entry CC(C)ON=C1c2cc(OC(F)(F)F)ccc2NC(=S)C1(C)C : 28.9 to 289 nM

Field IC50 (HIV "Reverse Transcriptase" (Human immunodeficiency virus type 1 group M subtype B)), entry COCCON=C1c2cc(Cl)ccc2NC(=S)C1(C)C : ~32 nM

Field IC50 (HIV "Reverse Transcriptase" (Human immunodeficiency virus type 1 group M subtype B)), entry CC1(C)C(=S)Nc2ccc(Cl)cc2C1=NOCc1cccc(Cl)c1 : 26.4 to 264 nM

Field IC50 (HIV "Reverse Transcriptase" (Human immunodeficiency virus type 1 group M subtype B)), entry CC1(C)C(=S)Nc2ccc(Cl)cc2C1=NOCc1ccccc1[N+](=O)[O-] : 256 to 2560 nM

Field IC50 (HIV "Reverse Transcriptase" (Human immunodeficiency virus type 1 group M subtype B)), entry CCON=C1c2cc(Cl)ccc2NC(=O)C1(C)C [Example 2] : 82.5 nM

Field IC50 (HIV "Reverse Transcriptase" (Human immunodeficiency virus type 1 group M subtype B)), entry COc1ccc2c(c1)C(=NOC(C)C)C(C)(C)C(=O)N2 : ~36.2 nM

Field IC50 (HIV "Reverse Transcriptase" (Human immunodeficiency virus type 1 group M subtype B)), entry CON=C1c2cc(Cl)ccc2NC(=O)C1(C)C : 39.6 to 396 nM

Field IC50 (HIV "Reverse Transcriptase" (Human immunodeficiency virus type 1 group M subtype B)), entry CC1(C)C(=O)N(Cc2ccccc2)c2ccc(Cl)cc2C1=NOCc1ccccc1 [Example 10B] : > 23900 nM

Field IC50 (HIV "Reverse Transcriptase" (Human immunodeficiency virus type 1 group M subtype B)), entry CC1(C)C(=S)Nc2ccc(Cl)cc2C1=NOCc1ccccc1Cl : 264 to 2640 nM

Field IC50 (HIV "Reverse Transcriptase" (Human immunodeficiency virus type 1 group M subtype B)), entry CCC(C)ON=C1c2cc(Cl)ccc2NC(=O)C1(C)C (centres unmarked) : 33.9 to 339 nM

Field IC50 (HIV "Reverse Transcriptase" (Human immunodeficiency virus type 1 group M subtype B)), entry CC1(C)C(=O)Nc2ccc(Cl)cc2C1=NOCc1ccccc1Cl : 2750 to 27500 nM

Field IC50 (HIV "Reverse Transcriptase" (Human immunodeficiency virus type 1 group M subtype B)), entry CC1(C)C(=O)Nc2ccc(Cl)cc2C1=NOCc1ccccc1[N+](=O)[O-] : 2680 to 26800 nM

Field IC50 (HIV "Reverse Transcriptase" (Human immunodeficiency virus type 1 group M subtype B)), entry C#CCON=C1c2cc(Cl)ccc2NC(=O)C1(C)C : 36.1 to 361 nM

Field IC50 (HIV "Reverse Transcriptase" (Human immunodeficiency virus type 1 group M subtype B)), entry CCON=C1c2cc(OC)ccc2NC(=S)C1(C)C : 3.59 to 35.9 nM

Field IC50 (HIV "Reverse Transcriptase" (Human immunodeficiency virus type 1 group M subtype B)), entry CCON=C1c2cc(Cl)ccc2NC(=S)C1(C)C : 14.1 nM

Field IC50 (HIV "Reverse Transcriptase" (Human immunodeficiency virus type 1 group M subtype B)), entry CC(C)ON=C1c2cc(Cl)ccc2NC(=S)C1(C)C : 20.2 nM

Field IC50 (HIV "Reverse Transcriptase" (Human immunodeficiency virus type 1 group M subtype B)), entry CCON=C1c2cc(Cl)ccc2NC(=NO)C1(C)C : 3.55 to 35.5 nM

Field IC50 (HIV "Reverse Transcriptase" (Human immunodeficiency virus type 1 group M subtype B)), entry CCC1C(=N)c2cc(Cl)ccc2NC1=S (centres unmarked) : 4190 to 41900 nM

Field IC50 (HIV "Reverse Transcriptase" (Human immunodeficiency virus type 1 group M subtype B)), entry CSc1ccc2c(c1)C(=NOC(C)C)C(C)(C)C(=S)N2 : 32.4 to 324 nM

Field IC50 (HIV "Reverse Transcriptase" (Human immunodeficiency virus type 1 group M subtype B)), entry CCON=C1c2cc(Cc3ccncc3)ccc2NC(=S)C1(C)C : ~29.5 nM

Field IC50 (HIV "Reverse Transcriptase" (Human immunodeficiency virus type 1 group M subtype B)), entry CC(C)ON=C1c2cc(Cl)ccc2NC(=S)C12CCCC2 : 3.1 to 31 nM

Field IC50 (HIV "Reverse Transcriptase" (Human immunodeficiency virus type 1 group M subtype B)), entry CCON=C1c2cc(Cl)ccc2NC(=O)C1(C)C [Example 4] : 37.5 to 375 nM

Field IC50 (HIV "Reverse Transcriptase" (Human immunodeficiency virus type 1 group M subtype B)), entry CSc1ccc2c(c1)C(=NOC(C)C)C(C)(C)C(=O)N2 : 34.2 to 342 nM

Field IC50 (HIV "Reverse Transcriptase" (Human immunodeficiency virus type 1 group M subtype B)), entry CCON=C1c2cc(OCC)ccc2NC(=NO)C1(C)C : ~343 nM

Field IC50 (HIV "Reverse Transcriptase" (Human immunodeficiency virus type 1 group M subtype B)), entry CCCON=C1c2cc(Cl)ccc2NC(=O)C1(C)C : 35.6 to 356 nM

Field IC50 (HIV "Reverse Transcriptase" (Human immunodeficiency virus type 1 group M subtype B)), entry COCCON=C1c2cc(Cl)ccc2NC(=O)C1(C)C : 337 to 3370 nM

Field IC50 (HIV "Reverse Transcriptase" (Human immunodeficiency virus type 1 group M subtype B)), entry CC(C)ON=C1c2cc(Cl)ccc2NC(=S)C12CCC2 : 3.24 to 32.4 nM

Field IC50 (HIV "Reverse Transcriptase" (Human immunodeficiency virus type 1 group M subtype B)), entry CCON=C1c2cc(Cc3ccncc3)ccc2NC(=O)C1(C)C : 30.9 to 309 nM

Field IC50 (HIV "Reverse Transcriptase" (Human immunodeficiency virus type 1 group M subtype B)), entry COc1ccc2c(c1)C(=NOC(C)C)C(C)(C)C(=S)N2 : 3.42 to 34.2 nM

----------
System: HIV
ASSAY NOTES: Testing of preparations against HIV in a cell culture (T-Cell culture assay)
Assay type: cell-based
CONDITION INFO: Human immunodeficiency virus 1, 72 h; HIV-infected lymphocytes, 37° C. for 3 days; lowest concentration at which no giant cells occurred; read-out: T-Cell culture assay Minimum inhibitory concentration
MEASUREMENT KIND: log10 MIC (log10 of the value in mg/L)
A value of 2 here means MIC of 100 in mg/L, since values are log10.

// field: log10 MIC; key: CCON=C1c2cc(Cl)ccc2NC(=O)C1(C)C [Example 2] ; value = -0.70

// field: log10 MIC; key: CCON=C1c2cc(Cc3ccncc3)ccc2NC(=O)C1(C)C [Example 103] ; value = -1.40

// field: log10 MIC; key: CC(C)ON=C1c2cc(OC(F)(F)F)ccc2NC(=S)C1(C)C [Example 87] ; value = -1.40

// field: log10 MIC; key: CCON=C1c2cc(Cc3ccncc3)ccc2NC(=S)C1(C)C [Example 104] ; value = -1.40

// field: log10 MIC; key: CCC(C)ON=C1c2cc(Cl)ccc2NC(=S)C1(C)C (stereo not shown) [Example 67] ; value = -1.40

// field: log10 MIC; key: CCON=C1c2cc(Cl)ccc2NC(=O)C1CC (stereo not shown) [Example 39] ; value = 0.00

// field: log10 MIC; key: CCC1(CC)C(=O)Nc2ccc(Cl)cc2C1=NOC(C)C [Example 119] ; value = -2.10

// field: log10 MIC; key: CCON=C1c2cc(Cl)ccc2NC(=S)C12CCC2 [Example 115] ; value = -1.40

// field: log10 MIC; key: COCCON=C1c2cc(Cl)ccc2NC(=O)C1(C)C [Example 32] ; value = 0.00

// field: log10 MIC; key: CC(C)=NN=C1c2cc(Cl)ccc2NC(=S)C1(C)C [Example 62] ; value = -1.40

// field: log10 MIC; key: CSCCON=C1c2cc(Cl)ccc2NC(=S)C1(C)C [Example 50] ; value = -0.70

// field: log10 MIC; key: COCCON=C1c2cc(Cl)ccc2NC(=S)C1(C)C [Example 33] ; value = -0.70

// field: log10 MIC; key: CCCON=C1c2cc(Cl)ccc2NC(=O)C1(C)C [Example 8] ; value = -0.70

// field: log10 MIC; key: CCON=C1c2cc(OCC)ccc2NC(=NO)C1(C)C [Example 124] ; value = -0.40

// field: log10 MIC; key: CCCON=C1c2cc(Cl)ccc2NC(=S)C1(C)C [Example 9] ; value = -1.40

// field: log10 MIC; key: CCON=C1c2cc(Cl)ccc2NC(=S)C1(C)C [Example 3] ; value = -2.10

// field: log10 MIC; key: C=CCON=C1c2cc(Cl)ccc2NC(=S)C1(C)C [Example 48] ; value = -1.40

// field: log10 MIC; key: CC(C)ON=C1c2cc(Cl)ccc2NC(=S)C1(C)C [Example 7] ; value = -2.10

// field: log10 MIC; key: CC(C)ON=C1c2cc(Cl)ccc2NC(=O)C1(C)C [Example 6] ; value = -2.10

// field: log10 MIC; key: CCON=C1c2cc(Cl)ccc2N=C(Nc2ccccc2)C1(C)C [Example 131] ; value = 0.00

// field: log10 MIC; key: CCON=C1c2cc(Cl)ccc2NC(=S)C12CCCC2 [Example 122] ; value = -2.10
